B1: library; numbered along this chain (parent)
chain: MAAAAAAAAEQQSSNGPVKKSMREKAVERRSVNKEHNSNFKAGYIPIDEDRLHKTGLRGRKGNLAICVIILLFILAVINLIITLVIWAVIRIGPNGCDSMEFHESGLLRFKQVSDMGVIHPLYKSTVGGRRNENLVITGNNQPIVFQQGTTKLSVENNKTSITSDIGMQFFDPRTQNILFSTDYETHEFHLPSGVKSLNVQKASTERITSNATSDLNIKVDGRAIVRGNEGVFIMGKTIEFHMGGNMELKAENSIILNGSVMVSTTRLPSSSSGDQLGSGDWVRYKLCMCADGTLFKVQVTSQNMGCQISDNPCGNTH

Variants of: B1
Test: SGCB cell-surface expression functional score (HA stain, bin4 vs bin1, normalised to synonymous) (log10 ratio); higher = more cell-surface SGCB (functional)
measured_parameter: SGCB cell-surface expression functional score (log10)
I'd appreciate a reply containing only the number, no unit.

Lookup result for E35G ; measured SGCB cell-surface expression functional score (log10): 0.11

Recorded SGCB cell-surface expression functional score (log10) (variant D215H ): -0.39
